# Target or system: T1, mouse serum albumin (MSA), full length (mouse, UniProt P07724 25-608)
# T1 construct: mature; Immobilized on CM5 chip (SPR) or coated on plates (ELISA); also called mouse albumin; murine serum albumin
# Protocol summary: direct binding ELISA, coated MSA, anti-His-HRP
# Design: unit not given here
Decision: MSA DB ELISA (OD450) Ymax obs beneath 80 gives yes (1); MSA DB ELISA (OD450) Ymax obs meeting or exceeding 80 gives no (0).

Binder	Discrete label
ADX_6727_D06 (Y44A/K85S) (designed binder, Full His6-tagged entry) MGVSDVPRDLEVVAATPTSLLISWDAPAVTVRYYRITYGREVQKYSDLGPLYIAQEFTVPGSKSTATISGLKPGVDYTITVYAVTGSGESPASSSPISINYRTEIDKPSQHHHHHH	no (0)
ADX_6727_G05 (I43S/K85A) (designed binder, Full His6-tagged entry) MGVSDVPRDLEVVAATPTSLLISWDAPAVTVRYYRITYGREVQKYSDLGPLYSYQEFTVPGSKSTATISGLKPGVDYTITVYAVTGSGESPASSAPISINYRTEIDKPSQHHHHHH	yes (1)
ADX_6727_F04 (Y44A/K85A) (designed binder, Full His6-tagged entry) MGVSDVPRDLEVVAATPTSLLISWDAPAVTVRYYRITYGREVQKYSDLGPLYIAQEFTVPGSKSTATISGLKPGVDYTITVYAVTGSGESPASSAPISINYRTEIDKPSQHHHHHH	yes (1)
ADX_6727_B05 (I43S/K85T) (designed binder, Full His6-tagged entry) MGVSDVPRDLEVVAATPTSLLISWDAPAVTVRYYRITYGREVQKYSDLGPLYSYQEFTVPGSKSTATISGLKPGVDYTITVYAVTGSGESPASSTPISINYRTEIDKPSQHHHHHH	yes (1)
ADX_6727_C07 (R30A/K85S) (designed binder, Full His6-tagged entry) MGVSDVPRDLEVVAATPTSLLISWDAPAVTVRYYRITYGAEVQKYSDLGPLYIYQEFTVPGSKSTATISGLKPGVDYTITVYAVTGSGESPASSSPISINYRTEIDKPSQHHHHHH	no (0)

Q) Dear colleague, could you confirm whether MSA DB ELISA (OD450) Ymax obs of ADX_6727_G10 (Y35S/K85A) (designed binder, Full His6-tagged entry) MGVSDVPRDLEVVAATPTSLLISWDAPAVTVRYYRITYGREVQKSSDLGPLYIYQEFTVPGSKSTATISGLKPGVDYTITVYAVTGSGESPASSAPISINYRTEIDKPSQHHHHHH falls below 80? Thanks.
A) no (0)

Q) For ADX_6727_G01 (L41A) (designed binder, Full His6-tagged entry) MGVSDVPRDLEVVAATPTSLLISWDAPAVTVRYYRITYGREVQKYSDLGPAYIYQEFTVPGSKSTATISGLKPGVDYTITVYAVTGSGESPASSKPISINYRTEIDKPSQHHHHHH then?
A) no (0)

Q) Similarly, ADX_6727_B04 (Y35S/K85S) (designed binder, Full His6-tagged entry) MGVSDVPRDLEVVAATPTSLLISWDAPAVTVRYYRITYGREVQKSSDLGPLYIYQEFTVPGSKSTATISGLKPGVDYTITVYAVTGSGESPASSSPISINYRTEIDKPSQHHHHHH ?
A) no (0)
